Values were extracted from patent US8247211B2.

Quick list: MIC Enterococcus faecium (GC 4556) per entry.
# System: Enterococcus sp.
# measurement-protocol: In vitro antibacterial evaluation: minimum inhibitory concentration (MIC), broth dilution method
# Format: cell-based
# condition: Enterococcus faecium (GC 4556)

CC(C)CC(=O)OC1C(O)C(CO)OC(OC2C(CO)OC(Oc3ccc(CC4NC(=O)C(C(C)c5ccc(Cl)cc5)NC(=O)CNC(=O)C(CO)NC(=O)C(C(O)C5CNC(=N)N5C5OC(CO)C(O)C(O)C5O)NC(=O)C(C(O)C5CNC(=N)N5)NC4=O)cc3)C(O)C2O)C1O (centres unmarked) [Example 262b] = 16 µg/mL

Exercise: Entry under review: CC(C)CC(=O)OC1C(OC2C(CO)OC(Oc3ccc(CC4NC(=O)C(C(C)c5ccccc5)NC(=O)CNC(=O)C(CO)NC(=O)C(CC5CNC(=N)N5C5OC(CO)C(O)C(O)C5O)NC(=O)C(CC5CNC(=N)N5)NC4=O)cc3)C(O)C2O)OC(CO)C(O)C1O (centres unmarked) [Example 277b] . Reported MIC Enterococcus faecium (GC 4556)?
Key: >64 µg/mL
